- Target Or Test System: T1, human LTBP3-proTGFβ1 complex (human, UniProt Q9NS15 866-1039)
- T1 construct: range 866-1039; also called hLTBP3-proTGFβ1; hLTBP3
- T1 sequence (Q9NS15 866-1039 limits assumed, chain 1 of 2): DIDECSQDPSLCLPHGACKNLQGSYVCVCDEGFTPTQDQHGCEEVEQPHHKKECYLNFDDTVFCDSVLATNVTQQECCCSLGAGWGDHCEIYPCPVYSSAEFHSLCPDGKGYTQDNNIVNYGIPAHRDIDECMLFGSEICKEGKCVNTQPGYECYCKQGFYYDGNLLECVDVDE
- T1 sequence (chain, as listed by the source limits assumed, chain 2 of 2): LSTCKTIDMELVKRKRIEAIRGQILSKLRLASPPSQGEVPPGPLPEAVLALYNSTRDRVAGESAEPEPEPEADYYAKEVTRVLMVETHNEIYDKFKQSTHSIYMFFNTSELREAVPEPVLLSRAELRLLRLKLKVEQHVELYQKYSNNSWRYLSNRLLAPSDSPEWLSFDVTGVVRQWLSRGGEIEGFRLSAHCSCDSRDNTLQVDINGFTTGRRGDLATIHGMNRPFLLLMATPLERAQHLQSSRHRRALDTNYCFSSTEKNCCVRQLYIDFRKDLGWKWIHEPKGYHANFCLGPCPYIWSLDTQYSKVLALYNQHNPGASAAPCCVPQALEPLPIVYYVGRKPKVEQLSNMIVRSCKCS
- Assay Comment: MSD-SET, solution equilibrium titration
Observed Property: Kd (pM)
Quick reminder: number only, in pM, skip the unit.

Ab29 (antibody, IgG4, V domains shown) VH: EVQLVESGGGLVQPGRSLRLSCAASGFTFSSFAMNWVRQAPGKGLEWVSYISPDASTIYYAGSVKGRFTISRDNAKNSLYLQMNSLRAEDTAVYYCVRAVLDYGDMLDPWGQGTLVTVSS VL: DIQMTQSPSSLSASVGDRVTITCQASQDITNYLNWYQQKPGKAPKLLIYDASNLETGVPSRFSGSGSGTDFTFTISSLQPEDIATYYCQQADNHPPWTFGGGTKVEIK    11

-- ask Data request, read-out Kd, for Ab20 (antibody, IgG4, V domains shown) VH: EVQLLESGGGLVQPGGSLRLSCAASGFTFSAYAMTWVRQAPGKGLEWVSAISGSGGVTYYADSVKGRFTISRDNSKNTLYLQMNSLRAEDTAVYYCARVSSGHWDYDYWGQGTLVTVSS VL: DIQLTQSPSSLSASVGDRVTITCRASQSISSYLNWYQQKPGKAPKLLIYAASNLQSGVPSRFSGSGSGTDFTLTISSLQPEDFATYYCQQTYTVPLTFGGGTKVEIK
-- reply 180

-- ask Please give the measured Kd for this binder: Ab31 (antibody, IgG4, V domains shown) VH: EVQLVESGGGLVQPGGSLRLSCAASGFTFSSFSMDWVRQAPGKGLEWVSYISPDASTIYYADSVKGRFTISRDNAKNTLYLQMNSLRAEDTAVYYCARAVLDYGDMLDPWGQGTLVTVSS VL: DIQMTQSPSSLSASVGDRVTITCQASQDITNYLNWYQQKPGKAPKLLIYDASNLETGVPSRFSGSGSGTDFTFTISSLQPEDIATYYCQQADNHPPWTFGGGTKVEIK
-- reply 14

-- ask Form field: reported Kd of Ab24 (antibody, IgG4, V domains shown) VH: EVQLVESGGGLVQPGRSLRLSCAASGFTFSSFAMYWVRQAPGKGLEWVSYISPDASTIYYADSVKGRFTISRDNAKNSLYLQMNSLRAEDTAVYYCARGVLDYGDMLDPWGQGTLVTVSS VL: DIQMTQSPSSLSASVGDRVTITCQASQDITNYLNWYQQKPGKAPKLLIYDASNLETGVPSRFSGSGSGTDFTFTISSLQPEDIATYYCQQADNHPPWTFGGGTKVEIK
-- reply 21

-- ask Need Kd of Ab11 (antibody, IgG4, V domains shown) VH: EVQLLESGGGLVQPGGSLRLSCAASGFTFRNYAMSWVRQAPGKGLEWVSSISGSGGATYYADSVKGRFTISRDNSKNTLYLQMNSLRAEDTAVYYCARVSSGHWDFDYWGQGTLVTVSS VL: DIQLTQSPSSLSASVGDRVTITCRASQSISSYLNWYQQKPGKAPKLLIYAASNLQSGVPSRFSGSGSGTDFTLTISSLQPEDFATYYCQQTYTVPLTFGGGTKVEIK , thanks.
-- reply 1200

-- ask # input binder: Ab6 (antibody, human IgG4 S228P, kappa, V domains shown) VH: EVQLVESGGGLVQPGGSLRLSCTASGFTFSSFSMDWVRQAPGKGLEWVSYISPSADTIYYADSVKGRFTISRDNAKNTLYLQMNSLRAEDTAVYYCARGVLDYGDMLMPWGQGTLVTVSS VL: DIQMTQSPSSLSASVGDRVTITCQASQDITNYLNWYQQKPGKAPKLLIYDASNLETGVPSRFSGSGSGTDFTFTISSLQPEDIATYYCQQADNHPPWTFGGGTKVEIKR ; wanted: its Kd
-- reply 29

-- ask Can you share its Kd? I mean this binder: Ab26 (antibody, IgG4, V domains shown) VH: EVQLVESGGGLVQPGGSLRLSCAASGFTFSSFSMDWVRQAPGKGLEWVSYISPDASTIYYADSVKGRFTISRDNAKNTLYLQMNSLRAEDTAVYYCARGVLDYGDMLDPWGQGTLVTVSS VL: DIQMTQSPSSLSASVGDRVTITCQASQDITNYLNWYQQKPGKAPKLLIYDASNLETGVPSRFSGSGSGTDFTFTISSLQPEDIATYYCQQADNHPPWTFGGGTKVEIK
-- reply 23
